TLR7 (% of Compound No. 63-00 EC50 Value) values for the molecules below.
tested.target: TLR7 (Homo sapiens (Human))
Sequence (Q9NYK1 27-1049): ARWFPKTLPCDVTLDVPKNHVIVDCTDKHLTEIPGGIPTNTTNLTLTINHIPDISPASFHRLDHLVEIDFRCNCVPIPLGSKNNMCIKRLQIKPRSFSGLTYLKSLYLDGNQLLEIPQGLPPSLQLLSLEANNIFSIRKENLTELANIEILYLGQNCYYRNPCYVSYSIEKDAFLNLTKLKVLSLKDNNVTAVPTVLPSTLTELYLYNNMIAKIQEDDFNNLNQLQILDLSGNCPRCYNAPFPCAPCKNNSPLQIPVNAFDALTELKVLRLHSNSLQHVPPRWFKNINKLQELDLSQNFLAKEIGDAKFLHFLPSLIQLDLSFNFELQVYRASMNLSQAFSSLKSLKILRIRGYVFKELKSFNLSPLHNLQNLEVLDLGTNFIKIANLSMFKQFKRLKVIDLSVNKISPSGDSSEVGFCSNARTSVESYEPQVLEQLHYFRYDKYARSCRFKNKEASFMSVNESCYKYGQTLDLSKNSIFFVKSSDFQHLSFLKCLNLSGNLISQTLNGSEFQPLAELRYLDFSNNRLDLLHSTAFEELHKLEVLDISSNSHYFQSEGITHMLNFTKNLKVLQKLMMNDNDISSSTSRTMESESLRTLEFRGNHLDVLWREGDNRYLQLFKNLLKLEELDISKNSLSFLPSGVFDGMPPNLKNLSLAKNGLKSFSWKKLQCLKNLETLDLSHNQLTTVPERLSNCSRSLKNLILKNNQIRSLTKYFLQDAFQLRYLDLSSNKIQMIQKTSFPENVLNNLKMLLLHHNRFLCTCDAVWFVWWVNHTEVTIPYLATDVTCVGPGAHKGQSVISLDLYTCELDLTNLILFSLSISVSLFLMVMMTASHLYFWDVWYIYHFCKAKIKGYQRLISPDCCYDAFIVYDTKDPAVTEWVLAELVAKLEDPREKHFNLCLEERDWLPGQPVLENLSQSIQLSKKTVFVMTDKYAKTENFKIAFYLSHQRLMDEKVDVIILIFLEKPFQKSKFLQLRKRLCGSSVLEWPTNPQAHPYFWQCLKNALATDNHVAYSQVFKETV
measurement.description: TLR7 agonist bioactivity: induction of IFNα protein in pDC-enriched PBMC cultures (ELISA, 24 h)
Assay type: cell-based
settings: EC50 expressed as percentage of EC50 of Compound No. 63-00
Write the number in % without appending the unit.

Example entries begin here.
CCCCc1nc2c(N)nc3ccccc3c2n1Cc1ccc(CNCCC2CCC2)cc1; 715
CCCCc1nc2c(N)nc3ccccc3c2n1Cc1ccc(CN)cc1 [Compound No. 63-00, reference compound]; 100
CCCCc1nc2c(N)nc3ccccc3c2n1Cc1ccc(CNCC2(C)CCC2)cc1; 190
CCCCc1nc2c(N)nc3ccccc3c2n1Cc1ccc(CNCC(C)(C)C2CCC2)cc1; 900
CCCCc1nc2c(N)nc3ccccc3c2n1Cc1ccc(CNCCCC2CC2)cc1; 440

Consider the additional molecule presented here.
INPUT: Name the recorded TLR7 (% of Compound No. 63-00 EC50 Value) for CCCCc1nc2c(N)nc3ccccc3c2n1Cc1ccc(CNCC2CC2C)cc1 (stereo not drawn) .
OUTPUT: 220
